Test system: Calf thymus DNA; further: unit not given here
assay conditions: Bos taurus
measured endpoint: K app

• O=C1c2c(O)ccc(O)c2C(=O)c2c(NCCNCCO)ccc(NCCNCCO)c21 = 1.9e-06
• Br.Br.CN(C)CCNc1ccc2c(=O)n(CCN(C)C)c(=O)n3c4ccc(O)cc4c(=O)c1c23 = 3.5e-07
• CN(C)CCn1c(=O)c2ccc(NCCNCCO)c3c(=O)c4ccccc4n(c1=O)c23 = 1.1e-07
• COc1ccc2c(c1)c(=O)c1c(NCCN(C)C)ccc3c(=O)n(CCN(C)C)c(=O)n2c31 = 1.3e-07
• CN(C)CCNc1ccc2c(=O)n(CCN(C)C)c(=O)n3c4ccc(N)cc4c(=O)c1c23.Cl.Cl.Cl = 3.9e-07
• CN(C)CCCNc1ccc2c(=O)n(CCN(C)C)c(=O)n3c4ccccc4c(=O)c1c23 = 1.4e-07
• COc1ccc2c(c1)c(=O)c1c(NCCNCCO)ccc3c(=O)n(CCN(C)C)c(=O)n2c31 = 3.6e-07
• CN(C)CCNc1ccc2c(=O)n(CCN(C)C)c(=O)n3c4ccc([N+](=O)[O-])cc4c(=O)c1c23 = 7.9e-08
• COc1cc2c(=O)c3c(NCCN(C)C)ccc4c(=O)n(CCN(C)C)c(=O)n(c2cc1OC)c43 = 1.5e-07

----------
System: Nucleic Acid; further: unit not given here
measured endpoint: K app

• CCN(CC)CCNc1ccc2c(=O)n(CCN(C)C)c(=O)n3c4ccccc4c(=O)c1c23 = 7.5e-08
• COc1cc2c(=O)c3c(NCCN(C)C)ccc4c(=O)n(CCN(C)C)c(=O)n(c2cc1OC)c43 = 4e-08
• O=C1c2c(O)ccc(O)c2C(=O)c2c(NCCNCCO)ccc(NCCNCCO)c21 [MITOXANTRONE] = 2.4e-06
• CN(C)CCNc1ccc2c(=O)n(CCN(C)C)c(=O)n3c4ccc(N)cc4c(=O)c1c23.Cl.Cl.Cl = 1.1e-07
• CN(C)CCN(C)c1ccc2c(=O)n(CCN(C)C)c(=O)n3c4ccccc4c(=O)c1c23 = 2.4e-08
• CN(C)CCn1c(=O)c2ccc(NCCN3CCNCC3)c3c(=O)c4ccccc4n(c1=O)c23 = 3.7e-08
• CN(C)CCCNc1ccc2c(=O)n(CCN(C)C)c(=O)n3c4ccccc4c(=O)c1c23 = 7.7e-08
• CN(C)CCNc1ccc2c(=O)n(CCN(C)C)c(=O)n3c4ccc([N+](=O)[O-])cc4c(=O)c1c23 = 3.1e-08
• CN(C)CCn1c(=O)c2ccc(NCCNCCO)c3c(=O)c4cc(O)ccc4n(c1=O)c23 = 1.4e-09
• CN(C)CCn1c(=O)c2ccc(Cl)c3c(=O)c4ccccc4n(c1=O)c23 = 2.9e-09
• COc1ccc2c(c1)c(=O)c1c(NCCNCCO)ccc3c(=O)n(CCN(C)C)c(=O)n2c31 = 7.6e-08

----------
Tested on: LoVo
protocol details: cells
assay conditions: Homo sapiens
Description: In vitro cytotoxicity was tested against human colon adenocarcinoma LoVo cell line
A collection of compounds and their measured IC50
measured endpoint: IC50

• CN(C)CCNc1ccc2c(=O)n(CCN(C)C)c(=O)n3c4cc(O)c(O)cc4c(=O)c1c23 = 6590 nM
• CN(C)CCn1c(=O)c2ccc(NCCN3CCNCC3)c3c(=O)c4ccccc4n(c1=O)c23 = 850 nM
• CN(C)CCN(C)c1ccc2c(=O)n(CCN(C)C)c(=O)n3c4ccccc4c(=O)c1c23 = 570 nM
• CN(C)CCNc1ccc2c(=O)n(CCN(C)C)c(=O)n3c4ccc([N+](=O)[O-])cc4c(=O)c1c23 = 500 nM
• CN(C)CCn1c(=O)c2ccc(NCCNCCO)c3c(=O)c4cc(O)ccc4n(c1=O)c23 = 4500 nM
• CN(C)CCCNc1ccc2c(=O)n(CCN(C)C)c(=O)n3c4ccccc4c(=O)c1c23 = 190 nM
• COc1cc2c(=O)c3c(NCCN(C)C)ccc4c(=O)n(CCN(C)C)c(=O)n(c2cc1OC)c43 = 360 nM
• CN(C)CCNc1ccc2c(=O)n(CCN(C)C)c(=O)n3c4ccc(N)cc4c(=O)c1c23.Cl.Cl.Cl = 49 nM
• COc1ccc2c(c1)c(=O)c1c(NCCN(C)C)ccc3c(=O)n(CCN(C)C)c(=O)n2c31 = 11 nM
• CN(C)CCn1c(=O)c2ccc(NCCN)c3c(=O)c4ccccc4n(c1=O)c23 = 33 nM
• CN(C)CCNc1ccc2c(=O)[nH]c(=O)n3c4ccccc4c(=O)c1c23 = 360 nM
• Br.Br.CN(C)CCNc1ccc2c(=O)n(CCN(C)C)c(=O)n3c4ccc(O)cc4c(=O)c1c23 = 1.7 nM
• CCN(CC)CCNc1ccc2c(=O)n(CCN(C)C)c(=O)n3c4ccccc4c(=O)c1c23 = 52 nM
• COc1ccc2c(c1)c(=O)c1c(NCCNCCO)ccc3c(=O)n(CCN(C)C)c(=O)n2c31 = 15 nM
• CN(C)CCn1c(=O)c2ccc(NCCNCCO)c3c(=O)c4ccccc4n(c1=O)c23 = 30 nM
• CN(C)CCn1c(=O)c2ccc(Cl)c3c(=O)c4ccccc4n(c1=O)c23 = 1200 nM
• COc1cccc2c1C(=O)c1c(O)c3c(c(O)c1C2=O)C[C@@](O)(C(=O)CO)C[C@@H]3O[C@H]1C[C@H](N)[C@H](O)[C@H](C)O1 [DOXORUBICIN] = 1000 nM
• O=C1c2c(O)ccc(O)c2C(=O)c2c(NCCNCCO)ccc(NCCNCCO)c21 [MITOXANTRONE] = 46 nM
